Test system: Saccharomyces cerevisiae BY4741 SeMeCo community
Experiment: z-score of subpopulation abundance vs DMSO median, subpopulation auxotrophic for LUM; higher = larger share of this subpopulation than in DMSO controls
Conditions: 10 µM; 24 h; SM minimal medium; subpopulation (auxotrophy): LUM
Below, each entry is listed alongside its reported z-score of subpopulation abundance.
Just the number.

get_value(item= CC(C)(C)C1CCC(CC2=C(O)c3ccccc3C(=O)C2=O)CC1 (centres undefined) , readout=z-score of subpopulation abundance) returns 0.35

For record CC(C)c1nc(N(C)S(C)(=O)=O)nc(-c2ccc(F)cc2)c1/C=C/[C@@H](O)C[C@@H](O)CC(=O)O [Rosuvastatin] the listed z-score of subpopulation abundance is 1.84

O=C1Nc2ccccc2C1=O yielded z-score of subpopulation abundance of -0.31

Looking up CC(C)[C@H]1CC[C@H](C(=O)N[C@H](Cc2ccccc2)C(=O)O)CC1 [Nateglinide] , I see its z-score of subpopulation abundance listed as 1.15

Lab book: z-score of subpopulation abundance of CCC(=O)c1c(O)cc(O)cc1O noted as -0.46

The recorded z-score of subpopulation abundance for O=C(NCCO[N+](=O)[O-])c1cccnc1 is -0.44

* * *

Tested on: Saccharomyces cerevisiae BY4741 SeMeCo community
Assay: z-score of subpopulation abundance vs DMSO median, subpopulation auxotrophic for LU; higher = larger share of this subpopulation than in DMSO controls
Conditions: 10 µM; 24 h; SM minimal medium; subpopulation (auxotrophy): LU
Structures can show the parent of a compound that is named as a salt.
Decide using z-score of subpopulation abundance: a value greater than or equal to -0.03 is label 1, a smaller one is label 0.

Answered examples (4):
molecule | measured_on | assigned_category
CC[C@H]1OC(=O)[C@H](C)[C@@H](O[C@H]2C[C@@](C)(OC)[C@@H](O)[C@H](C)O2)[C@H](C)[C@@H](O[C@@H]2O[C@H](C)C[C@H](N(C)C)[C@H]2O)[C@](C)(O)C[C@@H](C)C(=O)[C@H](C)[C@@H](O)[C@]1(C)O [Erythromycin] | Saccharomyces cerevisiae BY4741 SeMeCo community | label 1
N#Cc1ccc2[nH]cc(CCCCN3CCN(c4ccc5oc(C(N)=O)cc5c4)CC3)c2c1 [Vilazodone HCl] | Saccharomyces cerevisiae BY4741 SeMeCo community | label 0
NC(=N\CCCCCC/N=C(N)/N=C(\N)Nc1ccc(Cl)cc1)/N=C(\N)Nc1ccc(Cl)cc1 [Chlorhexidine diacetate] | Saccharomyces cerevisiae BY4741 SeMeCo community | label 0
CC1(C)CC[C@]2(C(=O)O)CC[C@]3(C)C(=CC[C@@H]4[C@@]5(C)CC[C@H](O)C(C)(C)[C@@H]5CC[C@]43C)[C@@H]2C1 [Oleanolic Acid] | Saccharomyces cerevisiae BY4741 SeMeCo community | label 0

# bool: z-score of subpopulation abundance of Cn1c(=O)c2c(ncn2CC2OCCO2)n(C)c1=O [Doxofylline] >= -0.03 label 1

z-score of subpopulation abundance >= -0.03 for CCCCCCCCCC(=O)NC1C(Oc2c3cc4cc2Oc2ccc(cc2Cl)C(OC2OC(CO)C(O)C(O)C2NC(C)=O)C2NC(=O)C(NC(=O)C4NC(=O)C4NC(=O)C(Cc5ccc(c(Cl)c5)O3)NC(=O)C(N)c3ccc(O)c(c3)Oc3cc(O)cc4c3)c3ccc(O)c(c3)-c3c(OC4OC(CO)C(O)C(O)C4O)cc(O)cc3C(C(=O)O)NC2=O)OC(CO)C(O)C1O (configuration not stated) [Teicoplanin] ? label 1

In plain terms: is recorded z-score of subpopulation abundance at least -0.03 for CCN(CC)CCNC(=O)c1cc(Cl)c(N)cc1OC [Metoclopramide] ? label 1

Reported z-score of subpopulation abundance at or above -0.03? Cn1c([N+](=O)[O-])cnc1COC(N)=O [Ronidazole] label 0

Hello, I need to know if C#C[C@]1(OC(C)=O)CC[C@H]2[C@@H]3CCC4=C[C@@H](OC(C)=O)CC[C@@H]4[C@H]3CC[C@@]21C [Ethynodiol diacetate] has measured z-score of subpopulation abundance not below -0.03. Thanks! label 0

Does the molecule C#C[C@]1(O)CC[C@H]2[C@@H]3CCC4=Cc5oncc5C[C@]4(C)[C@H]3CC[C@@]21C [Danazol] have recorded z-score of subpopulation abundance that is -0.03 or more? label 1

Quick check, z-score of subpopulation abundance >= -0.03? C[C@H]1COc2c(C3(N)CC3)c(F)cc3c(=O)c(C(=O)O)cn1c23 [Pazufloxacin mesylate] label 1

Check if z-score of subpopulation abundance >= -0.03 (inclusive). Item: O=C(O[C@@H]1C[C@@H]2C[C@H]3C[C@H](C1)N2CC3=O)c1c[nH]c2ccccc12 [Dolasetron Mesylate] label 1

Given the entry Cc1onc(-c2ccccc2)c1C(=O)N[C@@H]1C(=O)N2[C@@H]1SC(C)(C)[C@@H]2C(=O)O [Oxacillin sodium monohydrate] , answer whether its z-score of subpopulation abundance meets or surpasses -0.03. label 1

Has COc1ccc2cc([C@H](C)C(=O)O)ccc2c1 [Naproxen Sodium] a recorded z-score of subpopulation abundance greater than or equal to -0.03? label 0

hey, is z-score of subpopulation abundance for this one >= -0.03? CN(C)CCc1c[nH]c2ccc(CS(=O)(=O)N3CCCC3)cc12 [Almotriptan Malate] label 1

* * *

System: Saccharomyces cerevisiae BY4741 SeMeCo community
Assay: z-score of subpopulation abundance vs DMSO median, subpopulation auxotrophic for HLU; higher = larger share of this subpopulation than in DMSO controls
Details: 10 µM; 24 h; SM minimal medium; subpopulation (auxotrophy): HLU
Output T for z-score of subpopulation abundance not less than -0.06; output F otherwise.

molecule | assigned_category
C#C[C@]1(O)CC[C@H]2[C@@H]3CCC4=CC(=O)CC[C@@H]4[C@H]3CC[C@@]21CC [Levonorgestrel] | T
Cc1cccc(C#Cc2ccccc2)n1 | F
CC[C@H]1OC(=O)C[C@@H](O)[C@H](C)[C@@H](O[C@@H]2O[C@H](C)[C@@H](O[C@H]3C[C@@](C)(O)[C@@H](O)[C@H](C)O3)[C@H](N(C)C)[C@H]2O)[C@@H](CC=O)C[C@@H](C)C(=O)/C=C/C(C)=C/[C@@H]1CO[C@@H]1O[C@H](C)[C@@H](O)[C@@H](OC)[C@H]1OC [Tylosin] | T

Is reported z-score of subpopulation abundance greater than or equal to -0.06 here: C[n+]1ccccc1C=NO [Pralidoxime Iodide] F

Does the molecule NCC[C@H](O)C(=O)N[C@@H]1C[C@H](N)[C@@H](O[C@H]2O[C@H](CN)[C@@H](O)[C@H](O)[C@H]2O)[C@H](O)[C@H]1O[C@H]1O[C@H](CO)[C@@H](O)[C@H](N)[C@H]1O [Amikacin hydrate] have recorded z-score of subpopulation abundance that is -0.06 or more? T

State whether the measured z-score of subpopulation abundance reaches -0.06, counting equality as reaching it, for OC[C@H]1O[C@H](OCC2O[C@@H](O)[C@H](O)[C@@H](O)[C@@H]2O)[C@H](O)[C@@H](O)[C@H]1O (some centres not stated) [Melibiose] F

* * *

Entries and their measured z-score of subpopulation abundance follow.
Tested on: Saccharomyces cerevisiae BY4741 SeMeCo community
Assay: z-score of subpopulation abundance vs DMSO median, subpopulation auxotrophic for U; higher = larger share of this subpopulation than in DMSO controls
Conditions: 10 µM; 24 h; SM minimal medium; subpopulation (auxotrophy): U
Where a name gives a salt, the structure may show the parent alone.
No unit in the answer, please; the number alone is enough.

Below: 5 molecules and their reported z-score of subpopulation abundance.
molecule | measured_on | z-score of subpopulation abundance
CN(C)c1ccc(O)c2c1C[C@H]1C[C@H]3[C@H](N(C)C)C(=O)C(C(N)=O)=C(O)[C@@]3(O)C(=O)C1=C2O [Minocycline HCl] | Saccharomyces cerevisiae BY4741 SeMeCo community | 0.78
CC1=C[C@H]2C(=O)O[C@H]3C[C@@H](C/C=C(\C)C[C@@H](C)/C=C/C=C4\CO[C@H](/C1=N\O)[C@@]42O)O[C@@]1(CC[C@H](C)[C@@H](C)O1)C3.CC[C@H]1O[C@]2(CC[C@@H]1C)C[C@@H]1C[C@@H](C/C=C(\C)C[C@@H](C)/C=C/C=C3\CO[C@@H]4/C(=N\O)C(C)=C[C@@H](C(=O)O1)[C@]34O)O2 | Saccharomyces cerevisiae BY4741 SeMeCo community | -0.74
C[N+]1(C)CCC(OC(=O)C(O)(c2ccccc2)C2CCCC2)C1 (stereo unspecified) [Glycopyrrolate] | Saccharomyces cerevisiae BY4741 SeMeCo community | 1.42
CCN1CCN(C(=O)N[C@@H](C(=O)N[C@@H]2C(=O)N3C(C(=O)O)=C(CSc4nnnn4C)CS[C@H]23)c2ccc(O)cc2)C(=O)C1=O | Saccharomyces cerevisiae BY4741 SeMeCo community | -0.72
O=C1C(CC[S+]([O-])c2ccccc2)C(=O)N(c2ccccc2)N1c1ccccc1 (racemic) [(+/-)-Sulfinpyrazone] | Saccharomyces cerevisiae BY4741 SeMeCo community | -0.3

In the following, a different molecule is considered.
Short answer for CC/C(=C(/CC)c1ccc(O)cc1)c1ccc(O)cc1 : z-score of subpopulation abundance was -1.17
